Target: panel of 203 kinases (Homo sapiens)
Construct: purchased DiscoverX (KINOMEscan)
Sequence (Q15303 26-1308): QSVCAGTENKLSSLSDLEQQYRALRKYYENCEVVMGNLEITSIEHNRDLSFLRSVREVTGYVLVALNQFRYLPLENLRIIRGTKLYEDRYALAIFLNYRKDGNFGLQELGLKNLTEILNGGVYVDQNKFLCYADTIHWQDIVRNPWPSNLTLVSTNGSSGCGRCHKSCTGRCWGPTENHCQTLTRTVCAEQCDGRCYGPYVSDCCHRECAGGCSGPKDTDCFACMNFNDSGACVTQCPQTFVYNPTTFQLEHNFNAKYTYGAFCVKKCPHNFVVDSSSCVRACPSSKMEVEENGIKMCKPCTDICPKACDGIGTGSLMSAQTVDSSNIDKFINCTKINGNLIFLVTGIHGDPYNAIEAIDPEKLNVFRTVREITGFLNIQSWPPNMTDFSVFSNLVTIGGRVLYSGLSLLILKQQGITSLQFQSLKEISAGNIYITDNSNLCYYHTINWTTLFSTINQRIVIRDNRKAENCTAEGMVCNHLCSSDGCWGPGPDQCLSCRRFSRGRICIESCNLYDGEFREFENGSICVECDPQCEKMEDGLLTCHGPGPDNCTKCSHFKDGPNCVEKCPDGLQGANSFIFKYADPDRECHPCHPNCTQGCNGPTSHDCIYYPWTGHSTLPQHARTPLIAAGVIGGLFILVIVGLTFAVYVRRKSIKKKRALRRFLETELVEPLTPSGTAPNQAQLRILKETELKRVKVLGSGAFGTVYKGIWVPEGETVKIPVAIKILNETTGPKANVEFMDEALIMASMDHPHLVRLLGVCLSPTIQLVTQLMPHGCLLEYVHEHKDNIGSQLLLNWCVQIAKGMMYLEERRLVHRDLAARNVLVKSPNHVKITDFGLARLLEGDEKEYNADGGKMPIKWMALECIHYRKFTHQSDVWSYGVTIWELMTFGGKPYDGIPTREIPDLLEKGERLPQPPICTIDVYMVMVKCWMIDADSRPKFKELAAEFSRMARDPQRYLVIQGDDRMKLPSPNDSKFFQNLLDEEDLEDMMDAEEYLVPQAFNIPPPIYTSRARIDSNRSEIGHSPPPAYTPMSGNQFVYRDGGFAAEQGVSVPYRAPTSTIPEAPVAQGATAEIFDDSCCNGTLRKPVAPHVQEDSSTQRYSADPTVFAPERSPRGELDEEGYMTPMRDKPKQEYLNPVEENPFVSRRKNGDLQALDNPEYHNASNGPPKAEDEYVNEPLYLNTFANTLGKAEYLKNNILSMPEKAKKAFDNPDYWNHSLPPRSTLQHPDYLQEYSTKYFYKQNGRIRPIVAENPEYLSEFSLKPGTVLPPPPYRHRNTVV
Test: KINOMEscan competitive binding, whole panel
Details: 10 µM, n=1; kinase ERBB4; read-out: Percent inhibition ERBB4
recorded.endpoint: inhibition at 10 µM (%)
API: value field is a number in %; no unit string.

[
  {
    "record.smiles": "Cc1ccc(O)cc1N(C)c1ccnc(Nc2cccc(S(N)(=O)=O)c2)n1",
    "measured.target": "panel of 203 kinases (Homo sapiens)",
    "assay.value": 87.3
  },
  {
    "record.smiles": "C[C@@H](Oc1cc(-c2cnc3ccccn23)sc1C(N)=O)c1ccccc1Cl",
    "measured.target": "panel of 203 kinases (Homo sapiens)",
    "assay.value": 0
  },
  {
    "record.smiles": "Clc1ccc(Nc2ncc(-c3ccccc3)s2)cc1",
    "measured.target": "panel of 203 kinases (Homo sapiens)",
    "assay.value": 0
  },
  {
    "record.smiles": "COc1ccc(Nc2nccc(-c3cnn4ncccc34)n2)cc1",
    "measured.target": "panel of 203 kinases (Homo sapiens)",
    "assay.value": 0
  }
]

Problem: Query inhibition at 10 µM on panel of 203 kinases (Homo sapiens) for `Cc1ccc(O)cc1Nc1ccnc(Nc2cccc(C(N)=O)c2)n1`
Result: 90.9

Problem: Report inhibition at 10 µM for `c1ccc(COc2cccc(-c3ccnc4[nH]ccc34)c2)cc1` tested on panel of 203 kinases (Homo sapiens).
Result: 0

Problem: Enter reported inhibition at 10 µM observed with panel of 203 kinases (Homo sapiens) for `Fc1cccc(COc2ccc(Nc3ncnc4c3CN(CCN3CCOCC3)CC4)cc2Cl)c1`
Result: 0

Problem: Under panel of 203 kinases (Homo sapiens): inhibition at 10 µM value of `CN1CCN(c2ccc(Nc3nccc(-c4cnn5ncccc45)n3)cc2C#N)CC1` ?
Result: 0

Problem: // lookup inhibition at 10 µM | system=panel of 203 kinases (Homo sapiens) | key= `Nc1ncc2c(-c3ccncc3)c[nH]c2n1`
Result: 0

Problem: What is its inhibition at 10 µM for panel of 203 kinases (Homo sapiens)? Entry: `COc1cc(Nc2nccc(-c3sc(N)nc3-c3cccc(NC(=O)c4c(F)cccc4F)c3)n2)cc(OC)c1OC`
Result: 100

====

inhibition at 10 µM for assorted compounds
Molecular target: PAK1 (Homo sapiens, UniProt Q13153)
Construct: purchased DiscoverX (KINOMEscan)
Sequence (Q13153 whole entry): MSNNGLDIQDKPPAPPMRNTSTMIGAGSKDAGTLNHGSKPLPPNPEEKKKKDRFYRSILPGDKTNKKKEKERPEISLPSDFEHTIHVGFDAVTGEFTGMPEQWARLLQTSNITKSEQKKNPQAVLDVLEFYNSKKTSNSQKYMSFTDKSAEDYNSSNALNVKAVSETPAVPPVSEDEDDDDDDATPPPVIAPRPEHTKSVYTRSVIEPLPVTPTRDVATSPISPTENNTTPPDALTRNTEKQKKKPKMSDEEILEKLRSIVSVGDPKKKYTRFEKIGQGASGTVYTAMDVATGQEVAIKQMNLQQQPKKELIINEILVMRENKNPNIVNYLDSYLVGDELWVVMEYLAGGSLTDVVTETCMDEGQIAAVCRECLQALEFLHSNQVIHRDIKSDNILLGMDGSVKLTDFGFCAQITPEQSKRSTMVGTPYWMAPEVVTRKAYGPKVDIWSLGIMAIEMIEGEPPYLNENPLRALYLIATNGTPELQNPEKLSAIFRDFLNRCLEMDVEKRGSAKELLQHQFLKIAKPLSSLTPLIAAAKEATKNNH
Assay: KINOMEscan competitive binding
Details: n=1, read-out: Percent inhibition, PAK1
Note to self: number, then unit, no commentary.

Some compounds with recorded inhibition at 10 µM:
[
  {
    "record.smiles": "COc1cc(Nc2nccc(-c3sc(N)nc3-c3cccc(NC(=O)c4c(F)cccc4F)c3)n2)cc(OC)c1OC",
    "inhibition at 10 µM": "99.8%"
  },
  {
    "record.smiles": "Nc1ncc2c(-c3ccncc3)c[nH]c2n1",
    "inhibition at 10 µM": "0%"
  },
  {
    "record.smiles": "c1ccc(COc2cccc(-c3ccnc4[nH]ccc34)c2)cc1",
    "inhibition at 10 µM": "0%"
  },
  {
    "record.smiles": "Cc1ccc(O)cc1N(C)c1ccnc(Nc2cccc(S(N)(=O)=O)c2)n1",
    "inhibition at 10 µM": "98.5%"
  },
  {
    "record.smiles": "Cc1ccc(O)cc1Nc1ccnc(Nc2cccc(C(N)=O)c2)n1",
    "inhibition at 10 µM": "79.3%"
  }
]

Problem: # input compound: `C[C@@H](Oc1cc(-c2cnc3ccccn23)sc1C(N)=O)c1ccccc1Cl` ; wanted: its inhibition at 10 µM
Result: 0%

====

Target: SLK (Homo sapiens)
Construct: purchased DiscoverX (KINOMEscan)
Sequence (Q9H2G2 whole entry): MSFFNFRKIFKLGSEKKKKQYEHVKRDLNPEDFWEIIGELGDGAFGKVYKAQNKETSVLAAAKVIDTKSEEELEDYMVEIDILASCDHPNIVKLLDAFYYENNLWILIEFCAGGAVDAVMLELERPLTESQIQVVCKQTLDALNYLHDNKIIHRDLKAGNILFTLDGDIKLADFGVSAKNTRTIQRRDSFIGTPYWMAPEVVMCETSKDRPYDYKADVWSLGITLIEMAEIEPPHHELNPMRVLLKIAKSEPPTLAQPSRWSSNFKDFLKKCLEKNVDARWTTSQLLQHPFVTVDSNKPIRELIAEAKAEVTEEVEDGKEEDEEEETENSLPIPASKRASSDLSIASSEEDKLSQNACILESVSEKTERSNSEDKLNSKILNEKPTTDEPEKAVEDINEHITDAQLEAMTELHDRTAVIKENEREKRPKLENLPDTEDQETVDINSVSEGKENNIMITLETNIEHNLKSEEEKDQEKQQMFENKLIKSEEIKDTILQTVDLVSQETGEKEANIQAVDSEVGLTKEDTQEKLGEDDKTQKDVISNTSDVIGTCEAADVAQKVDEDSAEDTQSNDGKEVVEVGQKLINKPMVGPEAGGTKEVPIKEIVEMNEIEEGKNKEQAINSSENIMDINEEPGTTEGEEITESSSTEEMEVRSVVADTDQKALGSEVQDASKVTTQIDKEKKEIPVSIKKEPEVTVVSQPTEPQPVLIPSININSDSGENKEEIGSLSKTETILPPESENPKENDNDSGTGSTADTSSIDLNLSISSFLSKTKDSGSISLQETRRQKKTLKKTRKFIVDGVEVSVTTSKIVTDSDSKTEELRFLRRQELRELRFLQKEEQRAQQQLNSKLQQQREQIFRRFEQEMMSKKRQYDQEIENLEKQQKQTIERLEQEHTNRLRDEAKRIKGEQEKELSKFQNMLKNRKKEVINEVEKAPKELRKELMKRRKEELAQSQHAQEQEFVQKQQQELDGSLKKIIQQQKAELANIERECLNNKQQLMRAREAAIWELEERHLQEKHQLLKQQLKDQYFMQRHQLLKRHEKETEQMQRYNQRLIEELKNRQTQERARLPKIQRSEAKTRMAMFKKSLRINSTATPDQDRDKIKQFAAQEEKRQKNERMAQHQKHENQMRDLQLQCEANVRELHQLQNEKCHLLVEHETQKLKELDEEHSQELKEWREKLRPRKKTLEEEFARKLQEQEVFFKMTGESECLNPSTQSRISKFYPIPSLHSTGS
Test: KINOMEscan competitive binding
Conditions: n=1, read-out: Percent inhibition, SLK
recorded.endpoint: inhibition at 10 µM (%)
Respond with the bare value in %.

Here is how some compounds turned out for inhibition at 10 µM.
[
  {
    "record.smiles": "COc1ccc(Nc2nccc(-c3cnn4ncccc34)n2)cc1",
    "recorded.endpoint": "inhibition at 10 µM",
    "readout.units": "%",
    "assay.value": 77.9
  },
  {
    "record.smiles": "Nc1ncc2c(-c3ccncc3)c[nH]c2n1",
    "recorded.endpoint": "inhibition at 10 µM",
    "readout.units": "%",
    "assay.value": 75.5
  },
  {
    "record.smiles": "Cc1ccc(O)cc1Nc1ccnc(Nc2cccc(C(N)=O)c2)n1",
    "recorded.endpoint": "inhibition at 10 µM",
    "readout.units": "%",
    "assay.value": 83.5
  },
  {
    "record.smiles": "Cc1ccc(O)cc1N(C)c1ccnc(Nc2cccc(S(N)(=O)=O)c2)n1",
    "recorded.endpoint": "inhibition at 10 µM",
    "readout.units": "%",
    "assay.value": 99.5
  },
  {
    "record.smiles": "Clc1ccc(Nc2ncc(-c3ccccc3)s2)cc1",
    "recorded.endpoint": "inhibition at 10 µM",
    "readout.units": "%",
    "assay.value": 0
  },
  {
    "record.smiles": "Fc1cccc(COc2ccc(Nc3ncnc4c3CN(CCN3CCOCC3)CC4)cc2Cl)c1",
    "recorded.endpoint": "inhibition at 10 µM",
    "readout.units": "%",
    "assay.value": 0
  }
]

Problem: Which inhibition at 10 µM is listed for `c1ccc(COc2cccc(-c3ccnc4[nH]ccc34)c2)cc1` ?
Result: 0

Problem: What value of inhibition at 10 µM has been recorded for this entry: `CN1CCN(c2ccc(Nc3nccc(-c4cnn5ncccc45)n3)cc2C#N)CC1`
Result: 98.1

Problem: inhibition at 10 µM for `COc1cc(Nc2nccc(-c3sc(N)nc3-c3cccc(NC(=O)c4c(F)cccc4F)c3)n2)cc(OC)c1OC` ?
Result: 99.8

Problem: inhibition at 10 µM lookup needed for `C[C@@H](Oc1cc(-c2cnc3ccccn23)sc1C(N)=O)c1ccccc1Cl` , thanks.
Result: 100

====

Target: PCTK1 (Homo sapiens, UniProt Q00536)
Construct: purchased DiscoverX (KINOMEscan)
Sequence (Q00536 whole entry): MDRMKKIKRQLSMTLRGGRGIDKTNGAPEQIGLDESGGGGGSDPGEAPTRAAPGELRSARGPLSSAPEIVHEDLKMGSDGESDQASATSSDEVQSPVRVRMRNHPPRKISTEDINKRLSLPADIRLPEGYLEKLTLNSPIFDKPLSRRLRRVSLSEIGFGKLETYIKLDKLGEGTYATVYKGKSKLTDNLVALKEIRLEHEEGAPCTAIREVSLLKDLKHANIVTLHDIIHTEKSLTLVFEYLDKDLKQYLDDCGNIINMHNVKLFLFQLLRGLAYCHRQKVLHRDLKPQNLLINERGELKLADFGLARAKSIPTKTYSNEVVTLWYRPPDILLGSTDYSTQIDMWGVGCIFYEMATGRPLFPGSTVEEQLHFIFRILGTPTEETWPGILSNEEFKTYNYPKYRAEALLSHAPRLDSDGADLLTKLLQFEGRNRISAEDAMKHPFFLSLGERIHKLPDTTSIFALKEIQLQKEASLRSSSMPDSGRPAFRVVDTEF
Test: KINOMEscan competitive binding
Conditions: n=1, read-out: Percent inhibition, PCTK1
Catalogue of compounds with associated inhibition at 10 µM
Output spec: scalar in %, unitless text.

Consider the following illustrative entries.
[
  {
    "record.smiles": "CN1CCN(c2ccc(Nc3nccc(-c4cnn5ncccc45)n3)cc2C#N)CC1",
    "measured.target": "PCTK1 (Homo sapiens, UniProt Q00536)",
    "recorded.endpoint": "inhibition at 10 µM",
    "assay.value": 100
  },
  {
    "record.smiles": "Cc1ccc(O)cc1Nc1ccnc(Nc2cccc(C(N)=O)c2)n1",
    "measured.target": "PCTK1 (Homo sapiens, UniProt Q00536)",
    "recorded.endpoint": "inhibition at 10 µM",
    "assay.value": 0
  },
  {
    "record.smiles": "COc1ccc(Nc2nccc(-c3cnn4ncccc34)n2)cc1",
    "measured.target": "PCTK1 (Homo sapiens, UniProt Q00536)",
    "recorded.endpoint": "inhibition at 10 µM",
    "assay.value": 100
  },
  {
    "record.smiles": "Fc1cccc(COc2ccc(Nc3ncnc4c3CN(CCN3CCOCC3)CC4)cc2Cl)c1",
    "measured.target": "PCTK1 (Homo sapiens, UniProt Q00536)",
    "recorded.endpoint": "inhibition at 10 µM",
    "assay.value": 0
  },
  {
    "record.smiles": "COc1cc(Nc2nccc(-c3sc(N)nc3-c3cccc(NC(=O)c4c(F)cccc4F)c3)n2)cc(OC)c1OC",
    "measured.target": "PCTK1 (Homo sapiens, UniProt Q00536)",
    "recorded.endpoint": "inhibition at 10 µM",
    "assay.value": 0
  },
  {
    "record.smiles": "Cc1ccc(O)cc1N(C)c1ccnc(Nc2cccc(S(N)(=O)=O)c2)n1",
    "measured.target": "PCTK1 (Homo sapiens, UniProt Q00536)",
    "recorded.endpoint": "inhibition at 10 µM",
    "assay.value": 96.9
  },
  {
    "record.smiles": "c1ccc(COc2cccc(-c3ccnc4[nH]ccc34)c2)cc1",
    "measured.target": "PCTK1 (Homo sapiens, UniProt Q00536)",
    "recorded.endpoint": "inhibition at 10 µM",
    "assay.value": 0
  },
  {
    "record.smiles": "C[C@@H](Oc1cc(-c2cnc3ccccn23)sc1C(N)=O)c1ccccc1Cl",
    "measured.target": "PCTK1 (Homo sapiens, UniProt Q00536)",
    "recorded.endpoint": "inhibition at 10 µM",
    "assay.value": 0
  },
  {
    "record.smiles": "Nc1ncc2c(-c3ccncc3)c[nH]c2n1",
    "measured.target": "PCTK1 (Homo sapiens, UniProt Q00536)",
    "recorded.endpoint": "inhibition at 10 µM",
    "assay.value": 78.2
  }
]

Turning now to a further record.
Problem: Fill in: inhibition at 10 µM of `Clc1ccc(Nc2ncc(-c3ccccc3)s2)cc1` is ___
Result: 0
